tested_target: TLR2/TLR6 heterodimer (Homo sapiens, UniProt O60603+Q9Y2C9)
Construct: expressed in transfected cells; host or cells: 293 cells
Sequence (O60603 21-784): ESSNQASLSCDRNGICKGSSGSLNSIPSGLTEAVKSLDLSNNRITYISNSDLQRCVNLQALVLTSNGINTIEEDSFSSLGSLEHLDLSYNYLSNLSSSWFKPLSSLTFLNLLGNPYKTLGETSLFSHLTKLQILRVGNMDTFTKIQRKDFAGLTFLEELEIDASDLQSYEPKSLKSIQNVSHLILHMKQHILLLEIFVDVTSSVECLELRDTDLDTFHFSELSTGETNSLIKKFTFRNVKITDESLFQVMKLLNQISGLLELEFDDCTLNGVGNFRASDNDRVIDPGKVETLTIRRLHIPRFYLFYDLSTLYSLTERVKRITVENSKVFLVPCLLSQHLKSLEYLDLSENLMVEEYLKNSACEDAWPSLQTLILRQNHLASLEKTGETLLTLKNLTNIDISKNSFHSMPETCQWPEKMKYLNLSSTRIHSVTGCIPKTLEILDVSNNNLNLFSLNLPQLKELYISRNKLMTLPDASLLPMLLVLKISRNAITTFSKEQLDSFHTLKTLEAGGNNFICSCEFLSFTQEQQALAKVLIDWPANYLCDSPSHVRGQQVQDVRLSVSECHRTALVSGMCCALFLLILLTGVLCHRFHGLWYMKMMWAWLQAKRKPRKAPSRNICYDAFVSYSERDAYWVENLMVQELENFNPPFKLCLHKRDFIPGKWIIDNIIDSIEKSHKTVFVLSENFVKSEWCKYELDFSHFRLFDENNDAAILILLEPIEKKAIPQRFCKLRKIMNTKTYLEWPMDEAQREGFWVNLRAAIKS
Sequence (Q9Y2C9 32-796): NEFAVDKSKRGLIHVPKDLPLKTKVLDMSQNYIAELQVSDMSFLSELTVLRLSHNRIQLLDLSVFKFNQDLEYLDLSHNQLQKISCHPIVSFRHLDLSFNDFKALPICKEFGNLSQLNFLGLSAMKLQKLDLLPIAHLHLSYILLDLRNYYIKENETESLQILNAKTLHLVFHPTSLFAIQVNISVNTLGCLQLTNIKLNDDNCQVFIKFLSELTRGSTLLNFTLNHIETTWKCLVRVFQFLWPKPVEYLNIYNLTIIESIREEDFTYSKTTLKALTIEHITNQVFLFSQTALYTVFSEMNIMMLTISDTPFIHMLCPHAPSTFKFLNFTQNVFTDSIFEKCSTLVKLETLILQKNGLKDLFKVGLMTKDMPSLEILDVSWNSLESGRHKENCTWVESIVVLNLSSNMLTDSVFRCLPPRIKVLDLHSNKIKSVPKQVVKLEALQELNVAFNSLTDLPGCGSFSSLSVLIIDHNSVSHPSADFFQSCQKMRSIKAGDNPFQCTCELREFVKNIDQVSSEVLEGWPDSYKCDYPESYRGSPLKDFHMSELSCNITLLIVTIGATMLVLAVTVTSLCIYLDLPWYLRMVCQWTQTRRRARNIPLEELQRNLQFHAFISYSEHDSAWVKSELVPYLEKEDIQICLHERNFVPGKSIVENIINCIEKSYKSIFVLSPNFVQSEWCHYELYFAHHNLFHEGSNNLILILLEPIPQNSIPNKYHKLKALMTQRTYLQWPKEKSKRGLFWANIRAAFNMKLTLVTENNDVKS
protocol_notes: NF-κB-dependent reporter activity in 293 cells expressing the TLR2/TLR6 heterodimer
Type: cell-based
Parameters: scale not given here
condition_context: in vitro activity, 293 cells expressing TLR2/TLR6
Peptide text beside a SMILES is read from it. * marks the point of attachment. Propyl(2R-PamO,3-PamO) = CCCCCCCCCCCCCCCC(=O)OC[C@H](C*)OC(=O)CCCCCCCCCCCCCCC; X1 = CCCCCCCCCCCCCCCC(=O)OCC(C*)OC(=O)CCCCCCCCCCCCCCC
quantity: NF-κB activation

[[record]]
compound = "CCCCCCCCCCCCCCCC(=O)OCC(CSC[C@H](N)C(=O)NCC(=O)N[C@@H](CO)C(=O)N[C@@H](Cc1c[nH]cn1)C(=O)N[C@@H](Cc1c[nH]cn1)C(=O)N[C@@H](CCSC)C(=O)O)OC(=O)CCCCCCCCCCCCCCC (stereo partly drawn) [CBLB604] (H-C(X1)GSHHM-OH)"
recorded_measurement = 0

[[record]]
compound = "CCCCCCCCCCCCCCCC(=O)OC[C@H](CSC[C@H](N)C(=O)NCC(=O)N[C@@H](CC(=O)O)C(=O)N1CCC[C@H]1C(=O)N[C@@H](CCCCN)C(=O)N[C@@H](Cc1c[nH]cn1)C(=O)N1CCC[C@H]1C(=O)N[C@@H](CCCCN)C(=O)N[C@@H](CO)C(=O)N[C@@H](Cc1ccccc1)C(=O)O)OC(=O)CCCCCCCCCCCCCCC [CBLB606] (H-C(Propyl(2R-PamO,3-PamO))GDPKHPKSF-OH; C-terminus assumed)"
recorded_measurement = 100

[[record]]
compound = "CCCCCCCCCCCCCCCC(=O)OC[C@H](CSC[C@H](N)C(=O)NCC(=O)N[C@@H](CCC(=O)O)C(=O)N[C@H](C(=O)N[C@@H](CC(=O)O)C(=O)N[C@@H](CCCCN)C(=O)O)[C@@H](C)O)OC(=O)CCCCCCCCCCCCCCC [CBLB613] (H-C(Propyl(2R-PamO,3-PamO))GETDK-OH)"
recorded_measurement = 200


###

protocol_notes: Solubility of the lipopeptides
Peptide text beside a SMILES is read from it. * marks the point of attachment. X1 = CCCCCCCCCCCCCCCC(=O)OCC(C*)OC(=O)CCCCCCCCCCCCCCC
quantity: Solubility

[[record]]
molecule = "CCCCCCCCCCCCCCCC(=O)OCC(CSC[C@H](N)C(=O)NCC(=O)N[C@@H](CCC(N)=O)C(=O)N[C@@H](Cc1c[nH]cn1)C(=O)N[C@@H](Cc1c[nH]cn1)C(=O)N[C@@H](Cc1c[nH]cn1)C(=O)O)OC(=O)CCCCCCCCCCCCCCC (stereo partly drawn) [CBLB602] (H-C(X1)GQHHH-OH)"
quantity = "Solubility"
recorded_measurement = "Poor"

[[record]]
molecule = "CCCCCCCCCCCCCCCC(=O)OCC(CSC[C@H](N)C(=O)NCC(=O)N[C@@H](CCC(N)=O)C(=O)N[C@@H](Cc1c[nH]cn1)C(=O)N[C@@H](Cc1c[nH]cn1)C(=O)N[C@@H](CCSC)C(=O)O)OC(=O)CCCCCCCCCCCCCCC (stereo partly drawn) [CBLB603] (H-C(X1)GQHHM-OH)"
quantity = "Solubility"
recorded_measurement = "Poor"

